System Under Test: Btk (Homo sapiens)
Construct: purified from insect cells as a full-length construct containing a N-terminal 6X-His tag; His6 (N); made in house; host or cells: insect cells (Method C)
Sequence (Q06187 whole entry): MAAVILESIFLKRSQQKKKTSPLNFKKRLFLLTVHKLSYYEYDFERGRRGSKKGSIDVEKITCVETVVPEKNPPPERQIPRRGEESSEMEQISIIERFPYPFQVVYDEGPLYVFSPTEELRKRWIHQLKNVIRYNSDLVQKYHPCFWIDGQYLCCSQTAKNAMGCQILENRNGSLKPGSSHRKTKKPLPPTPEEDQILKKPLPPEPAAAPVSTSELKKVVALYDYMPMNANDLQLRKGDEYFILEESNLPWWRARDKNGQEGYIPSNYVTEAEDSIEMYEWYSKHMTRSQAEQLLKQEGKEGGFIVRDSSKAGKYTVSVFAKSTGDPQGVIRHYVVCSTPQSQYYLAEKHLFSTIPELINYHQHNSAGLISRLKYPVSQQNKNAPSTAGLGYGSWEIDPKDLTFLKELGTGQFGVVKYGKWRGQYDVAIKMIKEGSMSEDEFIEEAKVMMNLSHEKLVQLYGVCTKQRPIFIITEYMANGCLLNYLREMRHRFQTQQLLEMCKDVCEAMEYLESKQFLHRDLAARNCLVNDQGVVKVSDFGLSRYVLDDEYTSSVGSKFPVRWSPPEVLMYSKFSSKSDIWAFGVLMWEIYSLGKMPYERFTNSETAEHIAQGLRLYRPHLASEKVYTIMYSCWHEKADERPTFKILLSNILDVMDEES
Assay Text: Btk in vitro inhibitory activity (one of Method A TR-FRET, Method B electrophoretic mobility shift, Method C radiometric filter binding)
Assay type: biochemical
Conditions: wild-type Btk; read-out: Btk-WT IC50
Listed here are compounds together with their documented IC50.
Reported Property: IC50 (nM)

{"Compound": "C=CC(=O)N[C@@H]1CCN(c2n[nH]c3nccc(-c4ccc(CNC(=O)c5cc(C(C)(C)C)on5)c(F)c4)c23)C1", "System Under Test": "Btk (Homo sapiens)", "Inequality Symbol": "=", "Endpoint Value": 0.0594}
{"Compound": "C=CC(=O)N1CC[C@@H](Nc2n[nH]c3nccc(-c4ccc(CNC(=O)c5ccc(C)cc5)c(F)c4)c23)C1", "System Under Test": "Btk (Homo sapiens)", "Inequality Symbol": "=", "Endpoint Value": 1.76}
{"Compound": "CC1(C(=O)N2CC[C@@H](Nc3n[nH]c4nccc(-c5ccc(CNC(=O)c6ccc(C7CC7)cc6)c(F)c5)c34)C2)COC1", "System Under Test": "Btk (Homo sapiens)", "Inequality Symbol": "=", "Endpoint Value": 251}
{"Compound": "CC(C)(C)c1ccc2c(c1)CCN(Cc1ccc(-c3ccnc4[nH]nc(N[C@H]5CC[C@H](O)CC5)c34)cc1F)C2=O", "System Under Test": "Btk (Homo sapiens)", "Inequality Symbol": ">", "Endpoint Value": 10000}
{"Compound": "C[C@H]1CC[C@@H](Nc2n[nH]c3nccc(-c4ccc(CNC(=O)c5noc(C(C)(C)C)n5)cc4CO)c23)CN1C(=O)N(C)C", "System Under Test": "Btk (Homo sapiens)", "Inequality Symbol": "=", "Endpoint Value": 64.6}
{"Compound": "CC#CC(=O)N1CC[C@@H](Nc2n[nH]c3nccc(-c4ccc(CNC(=O)c5ccc(C(C)(C)C)cc5)c(F)c4)c23)C1", "System Under Test": "Btk (Homo sapiens)", "Inequality Symbol": "=", "Endpoint Value": 1.65}
{"Compound": "CN(C)C(=O)N1CCC[C@@H](Nc2n[nH]c3nccc(-c4ccc(CNC(=O)c5noc(C(C)(C)C)n5)c(F)c4)c23)C1", "System Under Test": "Btk (Homo sapiens)", "Inequality Symbol": "=", "Endpoint Value": 11}
{"Compound": "C=CC(=O)N1CC[C@@H](Nc2n[nH]c3nccc(-c4ccc(CNC(=O)c5ccc(C6CC6)cc5)c(F)c4)c23)C1", "System Under Test": "Btk (Homo sapiens)", "Inequality Symbol": "=", "Endpoint Value": 1.27}
{"Compound": "C[C@@H]1[C@H](Nc2n[nH]c3nccc(-c4ccc(CNC(=O)c5noc(C(C)(C)C)n5)c(F)c4)c23)CCCN1C(=O)N(C)C", "System Under Test": "Btk (Homo sapiens)", "Inequality Symbol": "=", "Endpoint Value": 89.3}
{"Compound": "C=CC(=O)N1CC[C@@H](Nc2n[nH]c3nccc(-c4ccnc(N5CCn6c(cc7c6CC(C)(C)C7)C5=O)c4CO)c23)C1", "System Under Test": "Btk (Homo sapiens)", "Inequality Symbol": "=", "Endpoint Value": 1.51}
{"Compound": "O=C(NCc1ccc(-c2ccnc3[nH]nc(NC4CCNC4)c23)cc1F)c1cc(Cl)on1 (centres unmarked)", "System Under Test": "Btk (Homo sapiens)", "Inequality Symbol": "=", "Endpoint Value": 901}
{"Compound": "CN1CCCN([C@@H]2CCN(c3n[nH]c4nccc(-c5ccc(CNC(=O)c6noc(C(C)(C)C)n6)c(F)c5)c34)C2)C1=O", "System Under Test": "Btk (Homo sapiens)", "Inequality Symbol": "=", "Endpoint Value": 11.7}
{"Compound": "C[C@@H](NC(=O)c1nc(C(C)(C)C)no1)c1ccc(-c2ccnc3[nH]nc(N4CCC(NS(C)(=O)=O)CC4)c23)cc1", "System Under Test": "Btk (Homo sapiens)", "Inequality Symbol": "=", "Endpoint Value": 0.488}
{"Compound": "CC(C)(C)c1nc(C(=O)NCc2ccc(-c3ccnc4[nH]nc(C5=CCNC5)c34)cc2F)no1", "System Under Test": "Btk (Homo sapiens)", "Inequality Symbol": "=", "Endpoint Value": 8.84}
{"Compound": "C[C@@H](NC(=O)c1cc(C(C)(C)O)on1)c1ccc(-c2ccnc3[nH]nc(NC4CCOC4)c23)cc1 (some centres unmarked)", "System Under Test": "Btk (Homo sapiens)", "Inequality Symbol": "=", "Endpoint Value": 625}
{"Compound": "C=CC(=O)N1CCC[C@@H](Nc2n[nH]c3nccc(-c4ccc(CNC(=O)c5cc(CC)on5)c(F)c4)c23)[C@H]1C", "System Under Test": "Btk (Homo sapiens)", "Inequality Symbol": "=", "Endpoint Value": 0.908}
{"Compound": "C[C@H]1CC[C@@H](Nc2n[nH]c3nccc(-c4ccc(CNC(=O)c5noc(C(C)(C)C)n5)c(F)c4)c23)CN1C(=O)NCC(F)(F)F", "System Under Test": "Btk (Homo sapiens)", "Inequality Symbol": ">", "Endpoint Value": 10000}
{"Compound": "C=CC(=O)N1CC[C@@H](Nc2n[nH]c3nccc(-c4ccc(CNC(=O)c5ccc(OC)cc5)c(F)c4)c23)C1", "System Under Test": "Btk (Homo sapiens)", "Inequality Symbol": "=", "Endpoint Value": 1.78}
{"Compound": "C=CC(=O)N[C@@H]1CCN(c2n[nH]c3nccc(-c4ccc(CNC(=O)c5cc(C(C)C)no5)c(F)c4)c23)C1", "System Under Test": "Btk (Homo sapiens)", "Inequality Symbol": "=", "Endpoint Value": 0.0776}
{"Compound": "C=CC(=O)N1CC[C@@H](Nc2n[nH]c3nccc(-c4ccc(CNC(=O)c5noc(CC)n5)c(F)c4)c23)C1", "System Under Test": "Btk (Homo sapiens)", "Inequality Symbol": "=", "Endpoint Value": 7.83}
{"Compound": "C=CC(=O)N1CCC[C@H](Nc2n[nH]c3nccc(-c4ccc(CNC(=O)c5nc(C(C)(C)C)no5)c(F)c4)c23)C1", "System Under Test": "Btk (Homo sapiens)", "Inequality Symbol": "=", "Endpoint Value": 3.72}
{"Compound": "CN(C)C(=O)N1CC[C@H](Nc2n[nH]c3nccc(-c4ccc(CNC(=O)c5noc(C(C)(C)C)n5)c(F)c4)c23)C1", "System Under Test": "Btk (Homo sapiens)", "Inequality Symbol": "=", "Endpoint Value": 10.4}
{"Compound": "CC(=O)N1CCC(Nc2n[nH]c3nccc(-c4ccc([C@@H](C)NC(=O)c5cc(C(C)(C)O)on5)cc4)c23)CC1", "System Under Test": "Btk (Homo sapiens)", "Inequality Symbol": ">", "Endpoint Value": 1000}
{"Compound": "CN(C)C/C=C/C(=O)N1CC[C@@H](Nc2n[nH]c3nccc(-c4ccc(C5(NC(=O)c6noc(C(C)(C)C)n6)CC5)cc4)c23)C1", "System Under Test": "Btk (Homo sapiens)", "Inequality Symbol": "=", "Endpoint Value": 11}
{"Compound": "C[C@@H]1[C@H](Nc2n[nH]c3nccc(-c4ccc(CNC(=O)c5noc(C(C)(C)C)n5)c(F)c4)c23)CCCN1S(=O)(=O)C1CC1", "System Under Test": "Btk (Homo sapiens)", "Inequality Symbol": "=", "Endpoint Value": 30}
{"Compound": "C[C@H]1CC[C@@H](Nc2n[nH]c3nccc(-c4ccc(CNC(=O)c5cc(C(C)(C)C)on5)c(F)c4)c23)CN1", "System Under Test": "Btk (Homo sapiens)", "Inequality Symbol": "=", "Endpoint Value": 225}
